Reference source for all entries: paper PMC10485906

# PROTOCOL TEXT: Mouse plasma and brain pharmacokinetics, IP administration
# Format: in vivo
# TEST CONTEXT: male, C57BL/6, mouse, brain and plasma, ip, 10 mg/kg, 10 mg/kg IP; 4 h; read-out: Brain/plasma Ratio, Mean
MEASURED METRIC: Kp at 4 h

Input: Requested read-out: Kp at 4 h. Entry: O=C(O)CC(F)(F)C(=O)N1N=C(c2c(-c3ccc(Cl)cc3)c3ccccc3[nH]c2=O)CC1c1ccc(Cl)cc1 (stereo not shown) [2i]
Output: 0.043

* * *

# PROTOCOL TEXT: Brain homogenate tissue binding and stability (RED device)
# Type: in vitro ADME, mouse
# TEST CONTEXT: C57BL/6, pH 7.4; mouse brain tissue binding, RED, 4 h
MEASURED METRIC: recovery at 4 h, 5 μM
A bare number is not enough; add the unit after it.

Input: Requested read-out: recovery at 4 h, 5 μM. Entry: CC(C)OC(=O)CC(F)(F)C(=O)N1N=C(c2c(-c3ccc(Cl)cc3)c3ccccc3[nH]c2=O)CC1c1ccc(Cl)cc1 (stereo not shown) [2m]
Output: 51%

Input: // repeat for NC(=O)CC(F)(F)C(=O)N1N=C(c2c(-c3ccc(Cl)cc3)c3ccccc3[nH]c2=O)CC1c1ccc(Cl)cc1 (stereo not shown) [2k] and report
Output: 41%

Input: // repeat for CN(C)C(=O)CC(F)(F)C(=O)N1N=C(c2c(-c3ccc(Cl)cc3)c3ccccc3[nH]c2=O)CC1c1ccc(Cl)cc1 (stereo not shown) [2r] and report
Output: 90%

Input: // repeat for CCOC(=O)CC(F)(F)C(=O)N1N=C(c2c(-c3ccc(Cl)cc3)c3ccccc3[nH]c2=O)CC1c1ccc(Cl)cc1 (stereo not shown) [2l] and report
Output: 41%

Input: // repeat for CNC(=O)CC(F)(F)C(=O)N1N=C(c2c(-c3ccc(Cl)cc3)c3ccccc3[nH]c2=O)CC1c1ccc(Cl)cc1 (stereo not shown) [2q] and report
Output: 30%

Input: // repeat for CC(C)(C)COC(=O)CC(F)(F)C(=O)N1N=C(c2c(-c3ccc(Cl)cc3)c3ccccc3[nH]c2=O)CC1c1ccc(Cl)cc1 (stereo not shown) [2o] and report
Output: 44%

Input: // repeat for O=C(O)CCC(=O)N1N=C(c2c(-c3ccc(Cl)cc3)c3ccccc3[nH]c2=O)CC1c1ccc(Cl)cc1 (stereo not shown) [2a] and report
Output: 100%

* * *

# TARGET OF ASSAY: GluN1/GluN2C (Rattus norvegicus, UniProt P35439+Q00961)
# Sequence (Q00961 20-1237, other chains not shown): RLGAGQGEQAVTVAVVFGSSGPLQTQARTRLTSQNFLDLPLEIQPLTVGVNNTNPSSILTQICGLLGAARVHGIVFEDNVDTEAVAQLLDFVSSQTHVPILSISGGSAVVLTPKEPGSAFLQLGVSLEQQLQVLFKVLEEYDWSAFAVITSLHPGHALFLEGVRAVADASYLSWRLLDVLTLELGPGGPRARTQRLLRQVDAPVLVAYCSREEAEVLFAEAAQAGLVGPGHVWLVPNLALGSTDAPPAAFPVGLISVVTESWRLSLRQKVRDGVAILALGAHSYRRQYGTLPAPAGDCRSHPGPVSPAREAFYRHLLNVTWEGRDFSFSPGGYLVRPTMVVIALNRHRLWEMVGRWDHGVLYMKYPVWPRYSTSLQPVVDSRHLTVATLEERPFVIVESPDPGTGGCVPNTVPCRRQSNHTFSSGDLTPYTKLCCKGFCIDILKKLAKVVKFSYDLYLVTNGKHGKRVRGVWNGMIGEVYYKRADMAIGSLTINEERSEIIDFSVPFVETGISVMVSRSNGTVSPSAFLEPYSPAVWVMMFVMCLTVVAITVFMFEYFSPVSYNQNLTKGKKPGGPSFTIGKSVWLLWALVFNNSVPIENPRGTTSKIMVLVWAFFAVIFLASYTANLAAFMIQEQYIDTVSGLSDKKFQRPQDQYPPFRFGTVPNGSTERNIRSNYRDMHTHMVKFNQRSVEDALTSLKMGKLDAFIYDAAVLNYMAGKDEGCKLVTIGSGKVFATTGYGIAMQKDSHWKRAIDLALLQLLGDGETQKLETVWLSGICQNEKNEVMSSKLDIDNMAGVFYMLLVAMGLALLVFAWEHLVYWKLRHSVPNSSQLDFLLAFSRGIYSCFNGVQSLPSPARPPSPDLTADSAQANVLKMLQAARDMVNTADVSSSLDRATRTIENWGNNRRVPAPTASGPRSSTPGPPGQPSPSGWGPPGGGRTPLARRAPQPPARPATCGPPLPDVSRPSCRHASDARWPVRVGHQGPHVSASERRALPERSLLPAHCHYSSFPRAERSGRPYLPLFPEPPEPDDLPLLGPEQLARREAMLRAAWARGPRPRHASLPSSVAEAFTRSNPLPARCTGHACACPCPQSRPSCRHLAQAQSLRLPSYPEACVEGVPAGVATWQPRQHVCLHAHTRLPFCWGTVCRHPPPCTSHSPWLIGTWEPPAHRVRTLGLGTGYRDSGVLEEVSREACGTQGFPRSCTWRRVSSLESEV
# PROTOCOL TEXT: Whole-cell voltage-clamp recordings, HEK cells, GluN1/GluN2C (agonist dependence)
# Assay type: cell-based
# TEST CONTEXT: inhibitor and glycine preapplied; read-out: IC50 steady-state responses
MEASURED METRIC: pIC50
pIC50 is defined as minus the log10 of a concentration measured in mol/L.

Input: Entry O=C(O)CC(F)(F)C(=O)N1N=C(c2c(-c3ccc(Cl)cc3)c3ccccc3[nH]c2=O)CC1c1ccc(Cl)cc1 (stereo not shown) , system GluN1/GluN2C (Rattus norvegicus, UniProt P35439+Q00961): what pIC50 was measured?
Output: 6.60

* * *

# PROTOCOL TEXT: Mouse plasma and brain pharmacokinetics, IP administration
# Type: in vivo
# TEST CONTEXT: male, C57BL/6, mouse, brain/plasma, ip, 10 mg/kg, 10 mg/kg IP; 0.5 h; read-out: Brain/plasma Ratio, Mean
MEASURED METRIC: Kp at 0.5 h
The answer should be written as a number, with no unit following it.

Input: Requested read-out: Kp at 0.5 h. Entry: O=C(O)CC(F)(F)C(=O)N1N=C(c2c(-c3ccc(Cl)cc3)c3ccccc3[nH]c2=O)CC1c1ccc(Cl)cc1 (stereo not shown)
Output: 0.014

* * *

# PROTOCOL TEXT: Mouse plasma and brain pharmacokinetics, IP administration
# Format: in vivo
# TEST CONTEXT: male, C57BL/6, mouse, brain; 10 mg/kg IP; read-out: t1/2 brain
MEASURED METRIC: half-life

Input: Requested read-out: half-life. Entry: O=C(O)CC(F)(F)C(=O)N1N=C(c2c(-c3ccc(Cl)cc3)c3ccccc3[nH]c2=O)CC1c1ccc(Cl)cc1 (stereo not shown)
Output: > 4 h

* * *

# PROTOCOL TEXT: Mouse plasma and brain pharmacokinetics, IP administration
# Format: in vivo
# TEST CONTEXT: male, C57BL/6, mouse, brain, intraperitoneal, 10 mg/kg, 10 mg/kg IP; 4 h; read-out: brain calculated concentration, Mean
# Description: IACUC-approved protocols and animal welfare regulations outlined in the “Guide for the Care and Use of Laboratory Animals” were both followed during the pharmacokinetic evaluation of all compounds. In vivo analysis was performed by Pharmaron (IP administration, Irvine, CA) and Sai Life (IV administration, Hinjewadi Pune, Pune, India). A group (n = 15) of fed, male C57BL/6 mice ∼6 to 8 weeks of age was injected IP with 10 mg/kg (1 mg/mL) of drug using 50% PEG400 in water as a vehicle. […]
MEASURED METRIC: concentration at 4 h (ng/g)
// units = ng/g; emit number, no label

Input: Requested read-out: concentration at 4 h. Entry: O=C(O)CC(F)(F)C(=O)N1N=C(c2c(-c3ccc(Cl)cc3)c3ccccc3[nH]c2=O)CC1c1ccc(Cl)cc1 (stereo not shown)
Output: 10.9

* * *

Field: pIC50. Provide a value for each of the molecules that follow.
# TARGET OF ASSAY: GluN1/GluN2D (Rattus norvegicus, UniProt P35439+Q62645)
# Sequence (Q62645 28-1323, other chains not shown): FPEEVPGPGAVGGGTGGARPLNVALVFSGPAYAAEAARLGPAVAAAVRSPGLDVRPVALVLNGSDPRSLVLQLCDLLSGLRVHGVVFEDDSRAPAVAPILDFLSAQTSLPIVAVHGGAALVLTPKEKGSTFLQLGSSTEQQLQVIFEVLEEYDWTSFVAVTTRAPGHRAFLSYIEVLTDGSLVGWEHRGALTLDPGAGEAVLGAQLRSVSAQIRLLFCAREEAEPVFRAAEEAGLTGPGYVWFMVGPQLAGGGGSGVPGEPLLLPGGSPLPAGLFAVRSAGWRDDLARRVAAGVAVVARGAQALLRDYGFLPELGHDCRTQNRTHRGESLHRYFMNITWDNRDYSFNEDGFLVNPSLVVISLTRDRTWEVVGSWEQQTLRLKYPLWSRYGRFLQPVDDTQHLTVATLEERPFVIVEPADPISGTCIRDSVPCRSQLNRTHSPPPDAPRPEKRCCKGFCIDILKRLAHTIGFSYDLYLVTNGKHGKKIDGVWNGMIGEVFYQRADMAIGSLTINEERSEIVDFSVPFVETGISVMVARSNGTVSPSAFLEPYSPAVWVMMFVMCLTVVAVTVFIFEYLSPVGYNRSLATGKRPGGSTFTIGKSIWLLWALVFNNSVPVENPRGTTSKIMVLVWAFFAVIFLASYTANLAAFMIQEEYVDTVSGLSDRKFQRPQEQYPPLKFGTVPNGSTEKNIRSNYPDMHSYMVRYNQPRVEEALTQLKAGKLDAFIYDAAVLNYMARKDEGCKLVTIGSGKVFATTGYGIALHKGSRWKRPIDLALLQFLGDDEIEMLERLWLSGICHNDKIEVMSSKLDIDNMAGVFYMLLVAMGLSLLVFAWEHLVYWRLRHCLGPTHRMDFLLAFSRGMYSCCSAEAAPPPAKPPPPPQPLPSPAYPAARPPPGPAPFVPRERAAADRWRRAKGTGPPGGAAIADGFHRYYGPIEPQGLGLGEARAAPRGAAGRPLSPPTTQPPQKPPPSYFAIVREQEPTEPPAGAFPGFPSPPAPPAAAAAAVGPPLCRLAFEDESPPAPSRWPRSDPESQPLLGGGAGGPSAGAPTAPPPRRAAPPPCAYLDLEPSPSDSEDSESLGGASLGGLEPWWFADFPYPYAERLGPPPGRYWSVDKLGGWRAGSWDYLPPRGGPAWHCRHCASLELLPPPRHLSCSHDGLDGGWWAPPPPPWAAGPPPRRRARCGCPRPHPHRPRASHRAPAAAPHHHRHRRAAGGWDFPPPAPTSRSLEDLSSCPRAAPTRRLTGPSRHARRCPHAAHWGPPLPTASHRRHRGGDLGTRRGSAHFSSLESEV
# PROTOCOL TEXT: Whole-cell voltage-clamp recordings, HEK cells, GluN1/GluN2D (agonist dependence)
# Assay type: cell-based
# TEST CONTEXT: steady-state current response to glutamate, inhibitor preapplied; read-out: IC50 steady-state (95% CI)
pIC50 is defined as minus the log10 of a concentration measured in mol/L.

Input: Requested read-out: pIC50. Entry: Cc1ccc2[nH]c(=O)c(C3=NN(C(=O)CCC(=O)O)C(c4ccc(Br)cc4)C3)c(-c3ccccc3)c2c1 (centres unmarked) [compound 1, reference compound]
Output: 6.14

Input: // repeat for O=C(O)CC(F)(F)C(=O)N1N=C(c2c(-c3ccc(Cl)cc3)c3ccccc3[nH]c2=O)CC1c1ccc(Cl)cc1 (centres unmarked) [2i] and report
Output: 7.10

* * *

Field: half-life. Provide a value for each of the compounds that follow.
# PROTOCOL TEXT: Mouse plasma and brain pharmacokinetics, IP administration
# Type: in vivo
# TEST CONTEXT: male, C57BL/6, mouse, plasma; 10 mg/kg IP; read-out: t1/2 plasma (converted)

Input: Requested read-out: half-life. Entry: NC(=O)CC(F)(F)C(=O)N1N=C(c2c(-c3ccc(Cl)cc3)c3ccccc3[nH]c2=O)CC1c1ccc(Cl)cc1 (centres unmarked)
Output: 4.9 h

Input: // repeat for O=C(O)CC(F)(F)C(=O)N1N=C(c2c(-c3ccc(Cl)cc3)c3ccccc3[nH]c2=O)CC1c1ccc(Cl)cc1 (centres unmarked) and report
Output: 1.5 h

* * *

# TARGET OF ASSAY: GluN1/GluN2D (Rattus norvegicus)
# PROTOCOL TEXT: Two-electrode voltage-clamp recordings, Xenopus laevis oocytes, GluN1/GluN2D
# Format: cell-based
# Design: GluN2B (NM_012574.1), GluN2C (NM_012575.3), and GluN2D (NM_022797.2) were provided by; expressed in transfected cells; host or cells: Xenopus laevis oocytes (cRNA injection)
# TEST CONTEXT: GluN2D over GluN2A
Output label 1 for Selectivity 2A IC50 / 2D IC50 not less than 40 fold; output label 0 otherwise.

Input: hey, is Selectivity 2A IC50 / 2D IC50 for this one >= 40 fold? O=C(CCc1nnn[nH]1)N1N=C(c2c(-c3ccc(Cl)cc3)c3ccccc3[nH]c2=O)CC1c1ccc(Cl)cc1 (stereo not shown) [2h]
Output: label 1

Input: // repeat for NC(=O)CC(F)(F)C(=O)N1N=C(c2c(-c3ccc(Cl)cc3)c3ccccc3[nH]c2=O)CC1c1ccc(Cl)cc1 (stereo not shown) [2k] and report
Output: label 0

Input: // repeat for CNC(=O)CC(F)(F)C(=O)N1N=C(c2c(-c3ccc(Cl)cc3)c3ccccc3[nH]c2=O)CC1c1ccc(Cl)cc1 (stereo not shown) [2q] and report
Output: label 1

Input: // repeat for O=C(O)CC(F)(F)C(=O)N1N=C(c2c(-c3ccc(Cl)cc3)c3ccccc3[nH]c2=O)C[C@H]1c1ccc(Cl)cc1 [(S)-(−)-2i] and report
Output: label 1

Input: // repeat for O=C(O)CC(F)(F)C(=O)N1N=C(c2c(-c3ccc(Cl)cc3)c3ccccc3[nH]c2=O)CC1c1ccc(Cl)cc1 (stereo not shown) [2i] and report
Output: label 1

Input: // repeat for N[C@@H](CCC(=O)N1N=C(c2c(-c3ccc(Cl)cc3)c3ccccc3[nH]c2=O)CC1c1ccc(Cl)cc1)C(=O)O (stereo partly shown) [2d] and report
Output: label 0
